- Tested on: P. falciparum stage V gametocytes
- Parameters: BacTiter-Glo ATP luminescence viability of purified stage V gametocytes in 384-well plates, per cent inhibition versus DMSO
- settings: 48 h, 5 µM; inhibitor
Among all 13,000 compounds or so, about 3,200 (25%) showed an effect of 50% or more. The list shows a part of the results.
In this section, each of the compounds is paired with its reported % Inhibition.
Report the figure in % without appending any unit label.

Look over these answered cases.
O=C(c1ccc2ccccc2n1)N1CCCc2cc(Br)ccc21: -4.614
COc1ccc(NS(=O)(=O)c2cccc(C(=O)Nc3ccc(C(F)(F)F)cc3)c2)cc1N1CCN(CC(C)C)CC1: -61.2
Cc1[nH]c2ccccc2c1C(=O)CSc1nn(-c2ccccc2)c(=S)s1: 60.68

Input: Recall and state the measured % Inhibition for COc1cc(OC)cc(-c2nn(-c3ccc([N+](=O)[O-])cc3Cl)c(=S)n2Cc2ccco2)c1 .
Output: 93.16

---

- Test system: P. falciparum stage V gametocytes
- Set-up: BacTiter-Glo ATP luminescence viability of purified stage V gametocytes in 384-well plates, per cent inhibition versus DMSO
- settings: 48 h, 5 µM; inhibitor
Among all 13,000 compounds or so, about 3,200 (25%) showed an effect of 50% or more. The list shows a part of the results.
reported-endpoint: % Inhibition
Dear colleague, please send the value followed by its unit.

COc1cccc(CN2CCCC(OC(c3ccc(F)cc3)c3ccc(F)cc3)C2)c1O (centres unmarked) [TCMDC-136167]: -3.055%

Input: Recall and state the measured % Inhibition for Clc1ccc(CNc2nc(NCCc3cnc[nH]3)nc(N3CCCC4CCCCC43)n2)cc1 (centres unmarked) [TCMDC-139743] .
Output: 10.44%

Input: Recall and state the measured % Inhibition for N#Cc1ccc(C(=O)Nc2cc(-c3cccc(O)c3)cc3[nH]ncc23)cc1 [TCMDC-134118] .
Output: 16.86%

Input: Recall and state the measured % Inhibition for Cc1cccc(C)c1CNc1nc(N2CCOCC2)cc2c(C)c(C)[nH]c12 [TCMDC-134210] .
Output: 43.54%

Input: Recall and state the measured % Inhibition for O=C(/C=C/c1ccc(Cl)c(Cl)c1)NCCC(CN1CCC(c2c[nH]c3ccccc23)CC1)c1ccccc1 (centres unmarked) [TCMDC-139621] .
Output: 20.48%

Input: Recall and state the measured % Inhibition for CC=CC1CCNC(C(O)c2ccnc3ccc(OC)cc23)C1 (centres unmarked) [TCMDC-132000] .
Output: 38.01%

Input: Recall and state the measured % Inhibition for O=C(CCCCCNC(=O)c1ccc(O)c(-c2cccc(C(F)(F)F)c2)c1)NCCN1CCCCC1 [TCMDC-140814] .
Output: -2.677%

Input: Recall and state the measured % Inhibition for COc1cc(C2C(Oc3ccccc3)C(=O)N2Cc2ccc(F)cc2)cc(OC)c1OC (centres unmarked) [TCMDC-125396] .
Output: 72.32%

Input: Recall and state the measured % Inhibition for CC(C)c1sc(-c2ccc(C(C)(C)C)cc2)nc1C(=O)NCCCN1CCCC1=O [TCMDC-133691] .
Output: 25.46%

---

- System: P. falciparum stage V gametocytes
- Set-up: BacTiter-Glo ATP luminescence viability of purified stage V gametocytes in 384-well plates, per cent inhibition versus DMSO
- settings: 48 h, 5 µM; inhibitor
Hit rate of the full screen: of about 13,000 compounds, about 3,200 (25%) showed an effect of 50% or more. This is one part of the list.
Answer Not met if % Inhibition is under 20%, and Met if it is 20% or more.

Study these solved cases before continuing.
COc1nc2c(CCN3CC[C@@H](NCc4cc(C#N)c5c(c4)CCO5)[C@@H](O)C3)ccnc2cc1F: Met
COc1ccc2ncc(F)c([C@H](O)CN3CCC(NCc4ccc5c(c4)NC(=O)CO5)CC3)c2c1: Not met
O=C(CCC1CCCCC1)NCCNc1cccc2ccccc12: Met
c1ccc(Oc2ccc(Nc3ccnc4cc(-c5ccc(CN6CCCCC6)o5)ccc34)cc2)nc1: Not met
O=C(NCc1ccc(F)cc1)Nc1cccc(-c2ccc(-c3nc4ccc(F)cc4[nH]3)cc2)c1: Not met
COc1ccc2ncc(F)c([C@H](O)CN3CCC(NCc4ccc5c(c4)OCCO5)CC3)c2c1: Not met
COc1ccc2c(c1)CC(CNC[C@H](O)c1cccc(Cl)c1)CC2 (some centres unmarked): Not met
CCCCCC(C)C(C)c1cc(O)c2c(c1)OC(C)(C)CC2=Cc1ccncc1 (centres unmarked): Not met
CCOc1c(Cl)cc(Cl)cc1CNCCCNc1nc2ccccc2[nH]1: Met
CC(C)COc1ccc(Cl)cc1Cc1nc(-c2nc3ccc(CN(C)C)cc3[nH]2)co1: Not met

Input: Has FC(F)(F)c1cccc(-c2cc(NCCCn3ccnc3)nc(-c3ccncc3)n2)c1 a recorded % Inhibition greater than or equal to 20%?
Output: Met

Input: Has CCOC(=O)c1ccc(OCc2ccc(-c3ccccc3)cc2)cc1 a recorded % Inhibition greater than or equal to 20%?
Output: Not met

Input: Has CCOc1cccc2nc(NCCCNCc3ccc(Cl)c(Cl)c3)cc(NCCCNCc3ccc(Cl)c(Cl)c3)c12 a recorded % Inhibition greater than or equal to 20%?
Output: Met

Input: Has CCOC(=O)c1ccc(N(CCCN(CCCN(c2ccc(C(=O)OCC)cc2)S(=O)(=O)c2ccc(C)cc2)CCc2ccc(O)cc2)S(=O)(=O)c2ccc(C)cc2)cc1 a recorded % Inhibition greater than or equal to 20%?
Output: Met

Input: Has COc1ccc2ncc(F)c([C@@H](O)CN3CCC(NCc4cc(C#N)c5c(c4)CCO5)CC3)c2n1 a recorded % Inhibition greater than or equal to 20%?
Output: Met

Input: Has CC(C)COc1ccc(Cl)cc1Cc1ccc(-c2nc3ccc(CCN(C)C)cc3[nH]2)o1 a recorded % Inhibition greater than or equal to 20%?
Output: Met

Input: Has CC(C)COc1ccc(Cl)cc1Cc1ccc(-c2nc3ccc(F)cc3[nH]2)o1 a recorded % Inhibition greater than or equal to 20%?
Output: Met

Input: Has CC(C)COc1ccc(Cl)cc1Cc1ccc(-c2nc3cc(F)c(F)cc3[nH]2)o1 a recorded % Inhibition greater than or equal to 20%?
Output: Met

---

In this section, each of the compounds is paired with its reported % Inhibition.
- Test system: P. falciparum stage V gametocytes
- Design: BacTiter-Glo ATP luminescence viability of purified stage V gametocytes in 384-well plates, per cent inhibition versus DMSO
- settings: 48 h, 5 µM; inhibitor
Among all 13,000 compounds or so, about 3,200 (25%) showed an effect of 50% or more. The list shows a part of the results.
Report the figure in % without appending any unit label.

Look over these answered cases.
CCCCCN1CCC(NS(=O)(=O)c2cccc(C(=O)Nc3ccc(C(F)(F)F)cc3)c2)C1 (stereo not shown) [TCMDC-132486]: -23.98
O=C(/C=C/c1cccc(Cl)c1)NCCCCCN1CCC(c2c[nH]c3ccccc23)CC1 [TCMDC-139211]: 97.27
O=S(=O)(c1ccc2ccccc2c1)N1CCCN(Cc2ccc(OCCCN3CCCCC3)cc2)CC1 [TCMDC-141721]: 52.58

Input: Recall and state the measured % Inhibition for COc1ccc(CCNCC(O)COc2nccc3c(S(=O)(=O)N4CCCNCC4)cccc23)cc1OC (stereo not shown) [TCMDC-132101] .
Output: 25.52

Input: Recall and state the measured % Inhibition for O=C(Nc1ccc2nc(-c3ccc4nc(NC(=O)C5CCCCC5)sc4c3)[nH]c2c1)C1CCCCC1 [TCMDC-125768] .
Output: -44.12

Input: Recall and state the measured % Inhibition for O=C(N[C@H]1CCN(Cc2ccc(OC3CCN(Cc4ccccc4)CC3)c(Cl)c2)C1)c1ccc(Cl)c(Cl)c1 [TCMDC-140277] .
Output: 30.17

---

- Test system: P. falciparum stage V gametocytes
- Set-up: BacTiter-Glo ATP luminescence viability of purified stage V gametocytes in 384-well plates, per cent inhibition versus DMSO
- settings: 48 h, 5 µM; inhibitor
In all, about 13,000 compounds went through this assay and about 3,200 (25%) showed an effect of 50% or more. The list shows a part of the results.
reported-endpoint: % Inhibition (%)
Report the figure in % without appending any unit label.

Look over these answered cases.
Cc1cc(Nc2ccc(C)c(Cl)c2)n2ncnc2n1: -28.24
CCc1c(CCNCCCCCCNCCc2ccc(Br)cc2)ccc(O)c1O: 115.9
COC(=O)c1cccc(NC(=O)NC2CCN(c3ccnc(Nc4ccc(OC)cc4)n3)C2)c1 (centres unmarked): -6.04
N#Cc1cncc(-c2nc3c(N4CCC(N5CCCC5)CC4)cccc3n2CCNCc2ccccc2)c1: 94.76

Now, please, on to the next compound.
Input: Jot down % Inhibition (P. falciparum stage V gametocytes) of CC1SC(=S)NC1C(=O)O (centres unmarked) .
Output: 9.711
